Consider the following compounds; for each one, report its AC50.
molecular target: Bile salt export pump (Homo sapiens); assay type: functional; further: assay procedure not described here
Sequence (O95342 whole entry): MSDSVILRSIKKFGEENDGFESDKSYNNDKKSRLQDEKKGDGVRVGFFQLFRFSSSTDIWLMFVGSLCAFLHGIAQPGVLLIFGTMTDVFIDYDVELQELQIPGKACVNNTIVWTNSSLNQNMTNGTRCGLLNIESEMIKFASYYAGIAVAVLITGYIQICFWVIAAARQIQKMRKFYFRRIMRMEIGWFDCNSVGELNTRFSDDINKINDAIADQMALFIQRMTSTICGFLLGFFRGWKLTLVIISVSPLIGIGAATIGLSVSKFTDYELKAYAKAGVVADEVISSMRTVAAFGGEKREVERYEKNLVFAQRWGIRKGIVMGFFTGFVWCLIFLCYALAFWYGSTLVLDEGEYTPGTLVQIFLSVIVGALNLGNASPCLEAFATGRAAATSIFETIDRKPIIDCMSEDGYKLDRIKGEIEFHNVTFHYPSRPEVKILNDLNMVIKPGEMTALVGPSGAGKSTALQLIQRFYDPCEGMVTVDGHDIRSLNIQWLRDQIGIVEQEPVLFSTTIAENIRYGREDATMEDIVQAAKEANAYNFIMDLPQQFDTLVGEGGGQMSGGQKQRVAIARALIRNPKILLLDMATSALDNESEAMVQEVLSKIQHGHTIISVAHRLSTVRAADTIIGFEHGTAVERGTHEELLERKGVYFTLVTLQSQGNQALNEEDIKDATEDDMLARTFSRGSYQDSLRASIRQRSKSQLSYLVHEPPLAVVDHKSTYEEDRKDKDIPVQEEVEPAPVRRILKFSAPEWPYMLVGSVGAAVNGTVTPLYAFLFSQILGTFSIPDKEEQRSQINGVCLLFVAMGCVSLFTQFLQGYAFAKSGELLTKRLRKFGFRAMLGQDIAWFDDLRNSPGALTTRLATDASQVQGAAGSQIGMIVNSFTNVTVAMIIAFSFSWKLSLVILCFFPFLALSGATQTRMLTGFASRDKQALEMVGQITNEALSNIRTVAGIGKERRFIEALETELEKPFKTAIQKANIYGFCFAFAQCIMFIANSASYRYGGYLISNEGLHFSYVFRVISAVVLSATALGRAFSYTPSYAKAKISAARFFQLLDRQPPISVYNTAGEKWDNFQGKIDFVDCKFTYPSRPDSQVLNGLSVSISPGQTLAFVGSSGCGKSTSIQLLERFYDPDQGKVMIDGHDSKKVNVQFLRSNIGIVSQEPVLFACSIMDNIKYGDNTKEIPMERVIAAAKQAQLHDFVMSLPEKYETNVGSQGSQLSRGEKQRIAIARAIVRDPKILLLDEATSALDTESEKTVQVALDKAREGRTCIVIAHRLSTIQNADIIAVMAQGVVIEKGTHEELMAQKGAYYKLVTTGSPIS

{"columns": ["COMPOUND", "ATTRIBUTE MEASURED", "REPORTED"],
 "data": [
  ["Nc1nc(N)c2nc(-c3ccccc3)c(N)nc2n1", "AC50", "> 300 µM"],
  ["Cc1cc(O)cc(C)c1Cl [CHLOROXYLENOL]", "AC50", "> 300 µM"],
  ["CCOC(=O)[C@H](CCc1ccccc1)N[C@@H](C)C(=O)N1CCC[C@H]1C(=O)O", "AC50", "> 300 µM"],
  ["CC(C(=O)O)c1ccc(C(=O)c2cccs2)cc1 (configuration not stated) [SUPROFEN]", "AC50", "> 300 µM"],
  ["CCC(=O)O[C@H]1[C@H](O[C@@H]2[C@@H](C)[C@H](O[C@H]3C[C@@](C)(OC)[C@@H](O)[C@H](C)O3)[C@@H](C)C(=O)O[C@H](CC)[C@@](C)(O)[C@H](O)[C@@H](C)C(=O)[C@H](C)C[C@@]2(C)O)O[C@H](C)C[C@@H]1N(C)C [ERYTHROMYCIN PROPIONATE]", "AC50", "> 300 µM"]
]}

# per-item lookup of AC50; items listed below
1. C[C@@H]1O[C@@H]1P(=O)(O)O [FOSFOMYCIN]
2. OCc1cc([C@@H](O)CNCCCCCCOCCOCc2c(Cl)cccc2Cl)ccc1O [VILANTEROL]

1. > 300 µM
2. 44 µM

# per-item lookup of AC50; items listed below
1. CC(=O)OC[C@H]1O[C@@H](n2ccc(=O)[nH]c2=O)[C@H](OC(C)=O)[C@@H]1OC(C)=O [URIDINE TRIACETATE]
2. NS(=O)(=O)c1cc2c(cc1Cl)NCNS2(=O)=O [HYDROCHLOROTHIAZIDE]
3. C#C[C@]1(O)CC[C@H]2[C@@H]3CCC4=CC(=O)CC[C@@H]4[C@H]3CC[C@@]21CC [LEVONORGESTREL]
4. COc1cc2c(cc1OC)C(=O)C(CC1CCN(Cc3ccccc3)CC1)C2 (configuration not stated) [DONEPEZIL]
5. COC(=O)N[C@H](C(=O)N1CCC[C@H]1c1nc(-c2ccc(-c3ccc(-c4c[nH]c([C@@H]5CCCN5C(=O)[C@@H](NC(=O)OC)C(C)C)n4)cc3)cc2)c[nH]1)C(C)C
6. CC(N)Cc1ccccc1 (configuration not stated) [AMPHETAMINE]

["> 300 µM", "> 300 µM", "94 µM", "> 300 µM", "5.9 µM", "> 300 µM"]

# per-item lookup of AC50; items listed below
1. Cc1c(-c2ccccc2)oc2c(C(=O)OCCN3CCCCC3)cccc2c1=O [FLAVOXATE]
2. CN1CCCC(n2nc(Cc3ccc(Cl)cc3)c3ccccc3c2=O)CC1 (configuration not stated) [AZELASTINE]
3. OC[C@@H](O)[C@@H](O)[C@H](O)[C@H](O)CO [MANNITOL]
4. NC[C@H]1CC[C@H](C(=O)O)CC1 [TRANEXAMIC ACID]

1: 220 µM; 2: > 100 µM; 3: > 300 µM; 4: > 300 µM

----------
Consider the following compounds; for each one, report its AC50.
Target: B2 bradykinin receptor (Homo sapiens, UniProt P30411); further: assay procedure not described here
Sequence (P30411 whole entry): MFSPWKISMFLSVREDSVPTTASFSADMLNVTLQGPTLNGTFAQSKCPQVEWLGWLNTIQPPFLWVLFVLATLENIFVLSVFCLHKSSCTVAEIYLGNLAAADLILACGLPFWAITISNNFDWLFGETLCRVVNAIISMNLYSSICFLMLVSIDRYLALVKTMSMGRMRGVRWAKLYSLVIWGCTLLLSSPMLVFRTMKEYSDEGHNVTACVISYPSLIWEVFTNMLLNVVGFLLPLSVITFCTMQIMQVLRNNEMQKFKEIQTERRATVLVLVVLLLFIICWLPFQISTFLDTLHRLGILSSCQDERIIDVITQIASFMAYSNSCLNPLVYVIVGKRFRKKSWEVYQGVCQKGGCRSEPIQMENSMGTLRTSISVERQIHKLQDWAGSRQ

Some compounds with known AC50 results, for comparison:
{"columns": ["COMPOUND", "REPORTED"],
 "data": [
  ["CCOC(=O)[C@H](CCc1ccccc1)N[C@@H](C)C(=O)N1CCC[C@H]1C(=O)O", "> 30 µM"],
  ["CC(C(=O)O)c1ccc(C(=O)c2cccs2)cc1 (stereo not given) [SUPROFEN]", "> 10 µM"],
  ["CN[C@@H](C)[C@H](O)c1ccccc1 [EPHEDRINE]", "> 30 µM"],
  ["NC(=O)c1cnccn1 [PYRAZINAMIDE]", "> 30 µM"]
]}

Which AC50 reading was recorded for the compound CN1CCCN=C1COC(=O)C(O)(c1ccccc1)C1CCCCC1 (stereo not given) [OXYPHENCYCLIMINE] ?
> 10 µM

----------
target: Beta-1 adrenergic receptor (Homo sapiens, UniProt P08588); format: functional; further: assay procedure not described here
Sequence (P08588 whole entry): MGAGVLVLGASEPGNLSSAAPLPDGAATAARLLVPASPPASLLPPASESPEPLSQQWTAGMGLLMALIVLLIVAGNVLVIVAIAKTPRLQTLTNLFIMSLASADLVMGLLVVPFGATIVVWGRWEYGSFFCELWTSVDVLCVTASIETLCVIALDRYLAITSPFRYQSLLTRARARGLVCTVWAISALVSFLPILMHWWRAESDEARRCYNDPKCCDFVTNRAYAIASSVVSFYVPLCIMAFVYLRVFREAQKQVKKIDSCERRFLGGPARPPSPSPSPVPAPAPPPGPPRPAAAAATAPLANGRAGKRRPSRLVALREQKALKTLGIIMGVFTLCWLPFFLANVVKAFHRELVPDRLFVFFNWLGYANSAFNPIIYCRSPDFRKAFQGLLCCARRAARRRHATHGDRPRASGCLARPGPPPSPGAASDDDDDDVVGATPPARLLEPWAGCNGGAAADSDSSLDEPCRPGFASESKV
ATTRIBUTE MEASURED: AC50

{"columns": ["COMPOUND", "AC50"],
 "data": [
  ["CCC[C@@H]1C[C@@H](C(=O)N[C@@H]([C@H]2O[C@H](SC)[C@H](O)[C@@H](O)[C@H]2O)[C@H](C)Cl)N(C)C1 [CLINDAMYCIN]", "> 10 µM"],
  ["CC[C@H](C)C(=O)O[C@H]1C[C@H](O)C=C2C=C[C@H](C)[C@H](CC[C@@H](O)C[C@@H](O)CC(=O)O)[C@H]21 [PRAVASTATIN]", "> 30 µM"],
  ["CC1=CC(=O)c2ccccc2C1=O [MENADIONE]", "> 10 µM"]
]}

# per-item lookup of AC50; items listed below
1. C#CCN(C)[C@H](C)Cc1ccccc1 [SELEGILINE]
2. CCc1nn(CCCN2CCN(c3cccc(Cl)c3)CC2)c(=O)n1CCOc1ccccc1 [NEFAZODONE]
3. Nc1nc2ccc(OC(F)(F)F)cc2s1 [RILUZOLE]
4. NC1=NC(=O)C(c2ccccc2)O1 (stereo not given) [PEMOLINE]
5. COc1ccc(C(=O)N2CCN(c3ccc4c(c3)CCC(=O)N4)CC2)cc1OC [VESNARINONE]
6. O=C(Cn1ccnc1[N+](=O)[O-])NCc1ccccc1 [BENZNIDAZOLE]
7. CN1CCc2cccc3c2[C@H]1Cc1ccc(O)c(O)c1-3 [APOMORPHINE]
8. O=C(O)CCCc1ccccc1 [PHENYLBUTANOIC ACID]

1. > 10 µM
2. > 10 µM
3. > 30 µM
4. > 10 µM
5. > 30 µM
6. > 30 µM
7. > 10 µM
8. > 10 µM

----------
molecular target: Voltage-dependent L-type calcium channel subunit alpha-1C (Rattus norvegicus, UniProt P22002); format: functional; further: assay procedure not described here
Sequence (P22002 whole entry): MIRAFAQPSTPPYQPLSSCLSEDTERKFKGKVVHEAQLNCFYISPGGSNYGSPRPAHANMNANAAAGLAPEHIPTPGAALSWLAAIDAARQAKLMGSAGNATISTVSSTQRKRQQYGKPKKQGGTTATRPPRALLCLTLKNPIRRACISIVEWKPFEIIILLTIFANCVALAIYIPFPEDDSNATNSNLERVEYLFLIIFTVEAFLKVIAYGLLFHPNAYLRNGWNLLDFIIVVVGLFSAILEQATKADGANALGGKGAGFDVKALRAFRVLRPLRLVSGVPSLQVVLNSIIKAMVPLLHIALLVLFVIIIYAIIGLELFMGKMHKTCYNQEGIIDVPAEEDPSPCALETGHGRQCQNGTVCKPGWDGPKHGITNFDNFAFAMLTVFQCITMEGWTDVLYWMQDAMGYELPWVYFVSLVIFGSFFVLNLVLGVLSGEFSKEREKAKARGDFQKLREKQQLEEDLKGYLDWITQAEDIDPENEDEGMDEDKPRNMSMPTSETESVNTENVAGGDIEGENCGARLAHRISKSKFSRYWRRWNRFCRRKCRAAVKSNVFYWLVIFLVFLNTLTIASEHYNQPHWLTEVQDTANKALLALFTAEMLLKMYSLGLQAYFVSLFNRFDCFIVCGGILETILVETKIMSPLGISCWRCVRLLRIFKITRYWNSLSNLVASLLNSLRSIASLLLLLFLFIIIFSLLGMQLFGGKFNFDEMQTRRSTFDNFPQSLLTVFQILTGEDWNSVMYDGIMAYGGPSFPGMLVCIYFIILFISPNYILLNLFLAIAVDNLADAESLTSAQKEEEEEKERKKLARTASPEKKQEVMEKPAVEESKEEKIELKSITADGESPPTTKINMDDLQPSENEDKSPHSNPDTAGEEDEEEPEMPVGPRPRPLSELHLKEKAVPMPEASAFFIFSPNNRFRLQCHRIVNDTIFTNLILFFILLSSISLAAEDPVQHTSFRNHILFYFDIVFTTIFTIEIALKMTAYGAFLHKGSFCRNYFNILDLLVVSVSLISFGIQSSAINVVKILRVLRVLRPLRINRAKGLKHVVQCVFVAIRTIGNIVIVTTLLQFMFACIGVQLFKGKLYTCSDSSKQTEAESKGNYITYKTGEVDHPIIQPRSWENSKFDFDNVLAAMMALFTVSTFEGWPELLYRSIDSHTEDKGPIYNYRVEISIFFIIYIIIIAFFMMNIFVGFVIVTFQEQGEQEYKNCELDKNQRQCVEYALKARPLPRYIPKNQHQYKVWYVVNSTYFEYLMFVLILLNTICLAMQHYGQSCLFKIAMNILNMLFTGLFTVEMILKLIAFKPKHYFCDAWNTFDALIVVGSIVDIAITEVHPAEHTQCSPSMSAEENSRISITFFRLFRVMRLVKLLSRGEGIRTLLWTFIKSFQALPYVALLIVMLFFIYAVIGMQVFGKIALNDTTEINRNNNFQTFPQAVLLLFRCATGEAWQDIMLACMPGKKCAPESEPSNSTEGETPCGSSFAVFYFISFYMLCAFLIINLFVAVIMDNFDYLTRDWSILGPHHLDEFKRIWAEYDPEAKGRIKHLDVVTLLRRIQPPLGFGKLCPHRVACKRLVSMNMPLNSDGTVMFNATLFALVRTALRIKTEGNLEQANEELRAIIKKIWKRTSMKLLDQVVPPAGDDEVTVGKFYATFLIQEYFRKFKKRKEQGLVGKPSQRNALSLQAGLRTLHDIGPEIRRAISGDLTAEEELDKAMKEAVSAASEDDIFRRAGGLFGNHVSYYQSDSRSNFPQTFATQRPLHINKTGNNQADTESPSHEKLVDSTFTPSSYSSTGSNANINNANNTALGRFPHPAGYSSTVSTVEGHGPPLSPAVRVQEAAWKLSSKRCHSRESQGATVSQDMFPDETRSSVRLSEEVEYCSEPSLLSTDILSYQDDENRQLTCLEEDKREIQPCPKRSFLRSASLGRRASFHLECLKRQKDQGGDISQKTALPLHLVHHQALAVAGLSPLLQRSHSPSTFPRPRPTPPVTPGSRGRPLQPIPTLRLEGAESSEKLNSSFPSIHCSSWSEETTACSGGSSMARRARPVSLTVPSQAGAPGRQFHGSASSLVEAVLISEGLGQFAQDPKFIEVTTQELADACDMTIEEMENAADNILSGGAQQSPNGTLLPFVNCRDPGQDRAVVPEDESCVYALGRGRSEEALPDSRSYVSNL
Consider the following compounds; for each one, report its AC50.

# per-item lookup of AC50; items listed below
1. CO/N=C(\C(=O)N[C@@H]1C(=O)N2C(C(=O)[O-])=C(C[N+]3(C)CCCC3)CS[C@H]12)c1csc(N)n1
2. O=C(O)CCCc1ccccc1 [PHENYLBUTANOIC ACID]
3. CC(C(=O)O)c1ccc(C(=O)c2cccs2)cc1 (centres undefined) [SUPROFEN]
4. CC[C@H](C)C(=O)O[C@H]1C[C@H](O)C=C2C=C[C@H](C)[C@H](CC[C@@H](O)C[C@@H](O)CC(=O)O)[C@H]21 [PRAVASTATIN]

> 30 µM
> 30 µM
> 10 µM
> 10 µM

----------
The next entries give measured AC50 for Estrogen receptor (Homo sapiens, UniProt P03372).

Some compounds with known AC50 results, for comparison:
{"columns": ["COMPOUND", "ATTRIBUTE MEASURED", "REPORTED"],
 "data": [
  ["O=C1[C@H](CC[C@H](O)c2ccc(F)cc2)[C@@H](c2ccc(O)cc2)N1c1ccc(F)cc1 [EZETIMIBE]", "AC50", "> 30 µM"],
  ["CC(C)OC(=O)[C@H](C)N[P@](=O)(OC[C@H]1O[C@@H](n2ccc(=O)[nH]c2=O)[C@](C)(F)[C@@H]1O)Oc1ccccc1 [SOFOSBUVIR]", "AC50", "> 30 µM"],
  ["COc1cc(Nc2c(C#N)cnc3cc(OCCCN4CCN(C)CC4)c(OC)cc23)c(Cl)cc1Cl [BOSUTINIB]", "AC50", "> 30 µM"],
  ["Nc1nc2c(ncn2CCC(CO)CO)c(=O)[nH]1 [PENCICLOVIR]", "AC50", "> 30 µM"],
  ["NCc1ccccc1CC(=O)N[C@@H]1C(=O)N2C(C(=O)O)=C(CSc3nnnn3CC(=O)O)CS[C@H]12 [CEFORANIDE]", "AC50", "> 30 µM"]
]}

# per-item lookup of AC50; items listed below
1. COc1ccc(-c2cc(=O)c3c(O)cc(O[C@@H]4O[C@H](CO[C@@H]5O[C@@H](C)[C@H](O)[C@@H](O)[C@H]5O)[C@@H](O)[C@H](O)[C@H]4O)cc3o2)cc1O [DIOSMIN]
2. NS(=O)(=O)c1cc2c(cc1Cl)NC(C1CC3C=CC1C3)NS2(=O)=O (stereo not given) [CYCLOTHIAZIDE]

> 30 µM
> 30 µM

# per-item lookup of AC50; items listed below
1. CC(=O)OC[C@H]1O[C@@H](n2ccc(=O)[nH]c2=O)[C@H](OC(C)=O)[C@@H]1OC(C)=O [URIDINE TRIACETATE]
2. CCS(=O)(=O)N1CC(CC#N)(n2cc(-c3ncnc4[nH]ccc34)cn2)C1 [BARICITINIB]

1. > 30 µM
2. > 30 µM

# per-item lookup of AC50; items listed below
1. Nc1nc(N)c2nc(-c3ccccc3)c(N)nc2n1
2. Nc1nc(-n2cc(C(=O)O)c(=O)c3cc(F)c(N4CC(O)C4)c(Cl)c32)c(F)cc1F [DELAFLOXACIN]
3. C#C[C@]1(O)CC[C@H]2[C@@H]3CCC4=CC(=O)CC[C@@H]4[C@H]3CC[C@@]21CC [LEVONORGESTREL]
4. C[C@@H]1C[C@H]2[C@@H]3C[C@H](F)C4=CC(=O)C(Cl)=C[C@]4(C)[C@@]3(F)[C@@H](O)C[C@]2(C)[C@@]1(O)C(=O)CO [HALOMETASONE]

1. > 30 µM
2. > 30 µM
3. 8.65 µM
4. > 30 µM

# per-item lookup of AC50; items listed below
1. CC(=O)OC(C)C[N+](C)(C)C (stereo not given) [METHACHOLINE]
2. COc1ccc(CCC(C)NCC(O)c2ccc(O)c([S+](C)[O-])c2)cc1 (stereo not given) [SULFINALOL]

["> 30 µM", "> 30 µM"]
